Molecular target: P-gp (MDR1) (Homo sapiens (Human), UniProt P08183)
Sequence (P08183 whole entry, species assumed): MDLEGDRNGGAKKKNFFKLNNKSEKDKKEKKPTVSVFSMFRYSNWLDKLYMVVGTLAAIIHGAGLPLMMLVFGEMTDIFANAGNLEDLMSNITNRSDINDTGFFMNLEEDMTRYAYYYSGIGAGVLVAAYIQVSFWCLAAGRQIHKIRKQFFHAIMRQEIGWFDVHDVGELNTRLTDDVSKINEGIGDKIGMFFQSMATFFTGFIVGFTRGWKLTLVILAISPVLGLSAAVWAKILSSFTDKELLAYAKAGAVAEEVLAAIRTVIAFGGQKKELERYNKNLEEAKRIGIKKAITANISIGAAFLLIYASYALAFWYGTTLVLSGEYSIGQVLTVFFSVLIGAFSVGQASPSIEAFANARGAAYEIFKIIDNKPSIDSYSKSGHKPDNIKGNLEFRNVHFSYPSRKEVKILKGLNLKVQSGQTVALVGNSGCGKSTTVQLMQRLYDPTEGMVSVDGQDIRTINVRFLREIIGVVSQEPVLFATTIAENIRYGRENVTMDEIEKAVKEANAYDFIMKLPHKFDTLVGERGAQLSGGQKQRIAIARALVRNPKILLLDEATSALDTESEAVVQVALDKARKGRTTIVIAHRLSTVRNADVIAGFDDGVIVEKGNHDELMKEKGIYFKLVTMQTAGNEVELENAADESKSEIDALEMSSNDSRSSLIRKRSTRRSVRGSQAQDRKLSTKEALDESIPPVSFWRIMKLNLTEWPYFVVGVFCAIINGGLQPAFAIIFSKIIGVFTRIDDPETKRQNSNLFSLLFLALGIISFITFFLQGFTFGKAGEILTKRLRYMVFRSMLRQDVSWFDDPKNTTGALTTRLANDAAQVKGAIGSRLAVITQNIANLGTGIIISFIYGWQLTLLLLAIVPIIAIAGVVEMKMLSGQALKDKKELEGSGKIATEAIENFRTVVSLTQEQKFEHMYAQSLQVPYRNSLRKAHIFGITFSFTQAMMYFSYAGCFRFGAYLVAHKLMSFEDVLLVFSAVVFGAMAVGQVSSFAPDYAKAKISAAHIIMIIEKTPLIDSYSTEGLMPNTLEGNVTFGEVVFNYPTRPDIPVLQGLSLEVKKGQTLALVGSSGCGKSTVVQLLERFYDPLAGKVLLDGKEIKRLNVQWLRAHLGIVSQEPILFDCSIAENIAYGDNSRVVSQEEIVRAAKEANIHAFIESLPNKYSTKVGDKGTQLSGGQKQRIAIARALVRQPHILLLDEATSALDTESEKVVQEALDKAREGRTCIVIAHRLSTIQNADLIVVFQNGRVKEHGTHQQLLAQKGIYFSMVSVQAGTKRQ
Assay: MDR1 LLC-PK1 permeability assay: efflux ratio
Format: in vitro ADME
Settings: pig
Structures can show the parent of a compound that is named as a salt.
Quick rule for you: efflux ratio at 2 h, 1 µM at 2 or higher means yes, lower means no.

Example entries begin here.
Cn1cnc2ccc(Nc3c(F)c(F)cc(NS(=O)(=O)N4CC[C@@H](F)C4)c3Cl)c(Cl)c2c1=O [Example 33, trifluoroacetate] = no
Cc1c(Nc2c(F)ccc(NS(=O)(=O)N3C[C@H](F)[C@@H](F)C3)c2Cl)ccc2ncn(C)c(=O)c12 (relative stereo) = no
Cn1cnc2ccc(Nc3c(F)ccc(NS(=O)(=O)N4CC5(CCC5)C4)c3Cl)c(F)c2c1=O [Example 159, trifluoroacetate] = no
Cc1c(Nc2c(F)ccc(NS(=O)(=O)N3CCC4(CC4)C3)c2Cl)ccc2ncn(C)c(=O)c12 [Example 82, trifluoroacetate] = no
Cn1cnc2ccc(Nc3c(F)c(F)cc(NS(=O)(=O)N4CC5CC4C5)c3Cl)c(F)c2c1=O [Example 41, trifluoroacetate] = no

Confirm if efflux ratio at 2 h, 1 µM reported for the compound Cn1cnc2ccc(Oc3c(F)ccc(NS(=O)(=O)N4CC(F)C4)c3Cl)c(F)c2c1=O is 2 or above. yes

* * *

Test: MDR1 LLC-PK1 and BCRP MDCKII permeability assay: permeability coefficient (Papp)
Type: in vitro ADME
Source text: Final organic concentration in the assay was 1%.
Structures can show the parent of a compound that is named as a salt.
Returns one of TRUE or FALSE; TRUE when Papp at 2 h, 1 µM is >= 30 ×10⁻⁶ cm/s.

O=c1c2c(F)c(Nc3c(F)ccc(NS(=O)(=O)N4CCCC4)c3Cl)ccc2ncn1CF [Example 42, trifluoroacetate] = FALSE
Cc1c(Oc2c(F)ccc(NS(=O)(=O)N3CC(F)C3)c2Cl)ccc2ncn(C)c(=O)c12 = TRUE
COCC1CN(S(=O)(=O)Nc2ccc(F)c(Oc3ccc4ncn(C)c(=O)c4c3Cl)c2Cl)C1 = TRUE
CO[C@@H]1CCN(S(=O)(=O)Nc2ccc(F)c(Nc3ccc4ncn(C)c(=O)c4c3Br)c2Cl)C1 [Example 8, trifluoroacetate] = FALSE
Cn1cnc2ccc(Oc3c(F)ccc(NS(=O)(=O)N4CC[C@@H](F)C4)c3Cl)c(Cl)c2c1=O = TRUE

Determine whether this molecule has Papp at 2 h, 1 µM no lower than 30 ×10⁻⁶ cm/s: CCN(C)S(=O)(=O)Nc1ccc(F)c(Nc2ccc3ncn(C)c(=O)c3c2Cl)c1Cl TRUE

Could you tell me if the measured Papp at 2 h, 1 µM of Cn1cnc2ccc(Nc3c(F)ccc(NS(=O)(=O)N4CC[C@H](F)C4)c3Cl)c(F)c2c1=O [Example 27, trifluoroacetate] reaches 30 ×10⁻⁶ cm/s or more? TRUE

Would you say Cc1c(Nc2c(F)ccc(NS(=O)(=O)N3CC(C)(F)C3)c2Cl)ccc2ncn(C)c(=O)c12 [Example 155, trifluoroacetate] shows Papp at 2 h, 1 µM at minimum 30 ×10⁻⁶ cm/s? TRUE

Hi, just wondering whether Cc1c(Nc2c(F)ccc(NS(=O)(=O)N3CC4C(F)C4C3)c2Cl)ccc2ncn(C)c(=O)c12 (centres unmarked) shows Papp at 2 h, 1 µM of 30 ×10⁻⁶ cm/s or higher. FALSE

Check this molecule for Papp at 2 h, 1 µM at or above 30 ×10⁻⁶ cm/s: [2H]C([2H])([2H])O[C@@H]1CCN(S(=O)(=O)Nc2ccc(F)c(Nc3ccc4ncn(C)c(=O)c4c3C)c2Cl)C1 [Example 55, trifluoroacetate] TRUE

Kindly determine if Papp at 2 h, 1 µM recorded for Cn1cnc2ccc(Nc3c(F)ccc(NS(=O)(=O)N4CC(COC(F)F)C4)c3Cl)c(Cl)c2c1=O [Example 138, trifluoroacetate] is above or exactly 30 ×10⁻⁶ cm/s. TRUE
